- Tested on: SR leukemia
- assay-notes: NCI-60 one-dose screen, 48 h (100 = growth as untreated, 0 = no growth, -100 = all killed)
- experimental-setup: 10 µM unless noted
This is part of a sample that, as a whole, favours compounds with a hit. Of some 83,000 tested, about 20% had one in any assay.
metric: growth (%)

[
  {
    "compound": "CCOC(=O)c1c(C(=O)OCC)c2cc(-c3ccn4c(C(=O)c5ccccc5)c(C(=O)OCC)c(C(=O)OCC)c4c3)ccn2c1C(=O)c1ccccc1",
    "experimental-system": "SR leukemia",
    "metric": "growth",
    "val": 90.4
  },
  {
    "compound": "Cn1cc(-c2nonc2-c2c[nH]c3ccccc23)c2cccnc21",
    "experimental-system": "SR leukemia",
    "metric": "growth",
    "val": 23.5
  },
  {
    "compound": "O=Nc1c(O)c(Cl)cc2ccccc12",
    "experimental-system": "SR leukemia",
    "metric": "growth",
    "val": 71.7
  },
  {
    "compound": "CC/C=C\\C[C@H]1C/C=C2/C(=O)C=C[C@H]2C/C=C\\CCCC(=O)O1",
    "experimental-system": "SR leukemia",
    "metric": "growth",
    "val": 4.6
  },
  {
    "compound": "O=[N+]([O-])c1ccc2c(c1)Cc1cc(F)ccc1-2",
    "experimental-system": "SR leukemia",
    "metric": "growth",
    "val": 103
  },
  {
    "compound": "Cc1nn(-c2cc(=O)[nH]c3ccccc23)c(N)c1C#N",
    "experimental-system": "SR leukemia",
    "metric": "growth",
    "val": 105
  },
  {
    "compound": "COc1ccc2c(c1)c(-c1nonc1-c1cn(C)c3ccccc13)cn2C",
    "experimental-system": "SR leukemia",
    "metric": "growth",
    "val": 30.1
  },
  {
    "compound": "O=c1cc(/C(=C2/C=CC=N2)c2ccc[nH]2)c2cc(Cl)ccc2o1",
    "experimental-system": "SR leukemia",
    "metric": "growth",
    "val": 23.7
  },
  {
    "compound": "Cc1ccc2c(C(C[N+](=O)[O-])c3ccco3)c(-c3ccccc3)[nH]c2c1 (stereo not given)",
    "experimental-system": "SR leukemia",
    "metric": "growth",
    "val": 24
  },
  {
    "compound": "C=C1c2nc3ccccc3n2C=C(c2ccc(OC)cc2)N1Cc1ccccc1",
    "experimental-system": "SR leukemia",
    "metric": "growth",
    "val": 47.3
  }
]

====

- System: HOP-62 NSCLC
- assay-notes: NCI-60 one-dose screen, 48 h (100 = growth as untreated, 0 = no growth, -100 = all killed)
- experimental-setup: 10 µM unless noted
About 83,000 compounds went through this panel and 20% of them were active in at least one assay; those are over-represented in the sample as a whole.
Response field label takes 1 (yes) when growth is strictly below 40% and 0 (no) in all other cases.

[
  {
    "compound": "O=C(COc1cccc(/C=C2\\CSc3ccccc3C2=O)c1)Nc1nccs1",
    "cat": "0 (no)"
  },
  {
    "compound": "Fc1ccc2[nH]cc(SSc3c[nH]c4ccc(F)cc34)c2c1",
    "cat": "1 (yes)"
  },
  {
    "compound": "CCOc1cc2ncc(C#N)c(Nc3ccc(OCc4cccc(F)c4)c(Cl)c3)c2cc1NC(=O)CC1CCSS1 (stereo not given)",
    "cat": "1 (yes)"
  },
  {
    "compound": "COc1ccc(-c2nc3ccc(-c4nc5ccc(N6CCN(c7ccc(F)cc7)CC6)cc5[nH]4)cc3[nH]2)cc1OC",
    "cat": "0 (no)"
  }
]

====

- Tested on: HCT-15 colon
- assay-notes: NCI-60 one-dose screen, 48 h
- experimental-setup: 10 µM unless noted
- Procedure: Growth inhibition of the HCT-15 human tumor cell line is measured as a screen for anti-cancer activity. Cells are grown in 96 well plates and exposed to the test compound for 48 hours. Compounds are tested at a single concentration, which is 10^-5 M for most compounds. The reported endpoint is percent growth (GI% or GIPRCNT), where numbers from 0 - 100% represent growth inhibition, and numbers from -100% - 0 represent cell death. For example, a value of 40 represents 60% growth inhibition. […]
About 83,000 compounds went through this panel and 20% of them were active in at least one assay; those are over-represented in the sample as a whole. Active and inactive are the calls of the source. Rule for the calls: active = growth percent below 10; inactive = the rest.
Outcomes: active, inactive

[
  {
    "smiles-code": "CCN1CCN(c2nc(NCCCNc3ccnc4cc(Cl)ccc34)c3ccccc3n2)CC1",
    "cat": "inactive"
  },
  {
    "smiles-code": "Cc1cc(N[C@@H]2CCC[C@H](Nc3ccnc4cc(Cl)ccc34)C2)nc(N2CCCCCC2)n1",
    "cat": "active"
  },
  {
    "smiles-code": "N#Cc1cnn(-c2nc3c(Cl)cccc3s2)c1N",
    "cat": "inactive"
  },
  {
    "smiles-code": "C=C(C)[C@@H]1CC[C@]2(C(=O)OC)CC[C@]3(C)[C@H](CC[C@@H]4[C@@]5(C)C/C(=C/c6cccc(I)c6)C(=O)C(C)(C)[C@@H]5CC[C@]43C)[C@@H]12",
    "cat": "inactive"
  },
  {
    "smiles-code": "COc1ccc(/C=C/c2nc3ccccc3nc2/C=C/c2ccc(OC)cc2)cc1",
    "cat": "inactive"
  }
]

====

- Tested on: SNB-19 CNS
- assay-notes: NCI-60 one-dose screen, 48 h (100 = growth as untreated, 0 = no growth, -100 = all killed)
- experimental-setup: 10 µM unless noted
Compounds without any hit were thinned out: in the full panel of roughly 83,000, 20% have a hit.
Threshold check on growth: at or above 40% gives Satisfied, strictly below gives Not satisfied.

[
  {
    "compound": "Cn1cc(-c2nonc2-c2c[nH]c3ccc(F)cc23)c2cccnc21",
    "cat": "Satisfied"
  },
  {
    "compound": "CCOC(=O)c1c(C(=O)OCC)c2cc(-c3ccn4c(C(=O)c5ccccc5)c(C(=O)OCC)c(C(=O)OCC)c4c3)ccn2c1C(=O)c1ccccc1",
    "cat": "Satisfied"
  },
  {
    "compound": "CCC#CC[C@H](O)C/C=C1/C(=O)C=C[C@@H]1C/C=C\\CCCC(=O)OC",
    "cat": "Not satisfied"
  },
  {
    "compound": "Nc1n[nH]c2cc(F)c([C@@H]3Nc4ccc5[nH]ncc5c4[C@H]4C5CCC(C5)[C@@H]34)cc12 (stereo not given in full)",
    "cat": "Not satisfied"
  },
  {
    "compound": "NC(CSC(c1ccccc1)(c1ccccc1)c1ccc(Cl)cc1)C(=O)O (stereo not given)",
    "cat": "Not satisfied"
  },
  {
    "compound": "O=C1/C(=C(/c2ccccc2)N2CCOCC2)Cc2ccccc21",
    "cat": "Satisfied"
  },
  {
    "compound": "CCc1nc(N)nc(N)c1C#CC(C)c1cc(-c2ccnc(C)c2)c2oc(C)nc2c1 (stereo not given)",
    "cat": "Not satisfied"
  },
  {
    "compound": "Cn1cc(C(=O)c2nc(-c3c[nH]c4ccccc34)no2)c2ccccc21",
    "cat": "Satisfied"
  },
  {
    "compound": "CSc1ccc(SC2c3ccc(C)cc3Oc3nc(N)c(C#N)c(N)c32)cc1 (stereo not given)",
    "cat": "Not satisfied"
  },
  {
    "compound": "Cn1cc(-c2nonc2-c2cn(C)c3ccc(F)cc23)c2cc(F)ccc21",
    "cat": "Satisfied"
  },
  {
    "compound": "CNC(=O)c1cc(Oc2ccc(NC(=O)Nc3ccc(Cl)c(OC(F)(F)F)c3)c(F)c2)ccn1",
    "cat": "Not satisfied"
  },
  {
    "compound": "COc1ccc(-c2nc3ccc(-c4nc5ccc(N6CCN(c7ccccc7)CC6)cc5[nH]4)cc3[nH]2)cc1OC",
    "cat": "Not satisfied"
  },
  {
    "compound": "Cn1c(O)c(N=NC(=O)c2cc(-c3ccccc3)on2)c2ccccc21",
    "cat": "Satisfied"
  },
  {
    "compound": "CNC(=O)c1cc(Oc2ccc(NC(=O)Nc3ccc(Cl)c(SC)c3)c(F)c2)ccn1",
    "cat": "Satisfied"
  },
  {
    "compound": "O=C1NC(=Nc2ccc(O)cc2)S/C1=C\\c1cccc(Cl)c1",
    "cat": "Satisfied"
  },
  {
    "compound": "Cc1nn(-c2cc(=O)[nH]c3ccccc23)c(N)c1C#N",
    "cat": "Satisfied"
  },
  {
    "compound": "CC(=O)Oc1ccc(Cl)cc1CN(C(C)=O)C1CCCCC1",
    "cat": "Satisfied"
  },
  {
    "compound": "O=C(CN(C(=O)Cn1c(=O)n2nnnc2c2ccccc21)c1ccccc1C(F)(F)F)Nc1ccc(C(F)(F)F)cc1",
    "cat": "Satisfied"
  }
]

Data provenance: PubChem BioAssay (NCI)
